target-entity: Sut1 (UniProt P53032)
Sequence: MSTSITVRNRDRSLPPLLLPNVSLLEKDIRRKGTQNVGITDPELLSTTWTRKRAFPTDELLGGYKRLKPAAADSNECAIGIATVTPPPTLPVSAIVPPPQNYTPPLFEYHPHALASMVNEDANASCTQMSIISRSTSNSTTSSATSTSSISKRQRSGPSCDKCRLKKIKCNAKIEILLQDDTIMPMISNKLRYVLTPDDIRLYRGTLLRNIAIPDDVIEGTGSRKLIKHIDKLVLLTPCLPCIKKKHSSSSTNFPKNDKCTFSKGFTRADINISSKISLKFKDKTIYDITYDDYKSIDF
experiment: PBM E-score (8-mer binding enrichment) (E-score (-0.5 to 0.5)); higher = stronger / more preferred TF binding
experimental-parameters: protein concentration: 200 nM; construct: GST-full length
In all, about 33,000 sequences were measured (“E-score (-0.5 to 0.5)”: median about -0.017, highest 2% from about 0.3 on). Many of the other results were omitted from the sample, so the highest values are more common in it than they were.
assay-endpoint: PBM E-score

{"sequence-text": "GCCTTGGA", "reading": -0.0418}
{"sequence-text": "AATAATAC", "reading": 0.202}
{"sequence-text": "CAGGTGGC", "reading": -0.219}
{"sequence-text": "AGACCTCC", "reading": -0.207}
{"sequence-text": "AATAATAG", "reading": 0.157}
{"sequence-text": "CCGGATAA", "reading": 0.285}
{"sequence-text": "ACGCCTCG", "reading": -0.115}
{"sequence-text": "CGTTTATC", "reading": 0.171}
{"sequence-text": "CCGGAATC", "reading": 0.326}
{"sequence-text": "AGCCGGAG", "reading": 0.371}
{"sequence-text": "ATACGAGG", "reading": -0.165}
{"sequence-text": "ACGGAACA", "reading": 0.229}
{"sequence-text": "CAGGCCTG", "reading": 0.0399}
{"sequence-text": "CCGGAAGG", "reading": 0.169}
{"sequence-text": "CGCCGGCC", "reading": -0.0583}
{"sequence-text": "GATAATAA", "reading": 0.234}
{"sequence-text": "AATAATGT", "reading": 0.235}
{"sequence-text": "GGCCGGAC", "reading": 0.302}
{"sequence-text": "GTCCGCAA", "reading": 0.298}
{"sequence-text": "ACTCGAGT", "reading": 0.0517}
{"sequence-text": "CTCCGCTA", "reading": 0.301}
{"sequence-text": "GAGTGATA", "reading": 0.13}
{"sequence-text": "ATAAAATA", "reading": 0.323}
{"sequence-text": "ACGGATAA", "reading": 0.103}
{"sequence-text": "CTCCGATA", "reading": 0.432}
{"sequence-text": "GTTAATAA", "reading": 0.319}
{"sequence-text": "AGCCGGCG", "reading": -0.0364}
{"sequence-text": "AGATATAC", "reading": 0.0915}
{"sequence-text": "AATTTAAT", "reading": 0.317}
{"sequence-text": "AGGTCGAG", "reading": -0.257}
{"sequence-text": "AGCCTTCC", "reading": -0.158}
{"sequence-text": "ACCATGAG", "reading": -0.166}
{"sequence-text": "GAGAAGGA", "reading": -0.0992}
{"sequence-text": "AACAGTCA", "reading": -0.138}
{"sequence-text": "CGTTGCAG", "reading": -0.136}
{"sequence-text": "GCCACTCA", "reading": -0.126}
{"sequence-text": "GCTCTGCC", "reading": -0.128}
{"sequence-text": "ATCCGATA", "reading": 0.215}
{"sequence-text": "AGCCTACT", "reading": -0.134}
{"sequence-text": "CACCGATA", "reading": 0.04}
{"sequence-text": "ATCCGCGA", "reading": -0.0287}
{"sequence-text": "GGCCCTCA", "reading": -0.279}
{"sequence-text": "ATTTCTTA", "reading": 0.0841}
{"sequence-text": "GCGGAGAA", "reading": 0.279}
{"sequence-text": "AGCCGGTG", "reading": 0.00841}
{"sequence-text": "ATATAGAG", "reading": 0.0735}
{"sequence-text": "CTATATAG", "reading": 0.0328}
{"sequence-text": "AAAAGATG", "reading": 0.0556}
{"sequence-text": "ATATATAG", "reading": 0.329}
{"sequence-text": "AGACTCCC", "reading": -0.319}
{"sequence-text": "CCACCCCA", "reading": -0.221}
{"sequence-text": "AGCCGGTC", "reading": -0.166}
{"sequence-text": "CCGGAACA", "reading": 0.304}
{"sequence-text": "AGCCGGAC", "reading": 0.342}
{"sequence-text": "GTCCCGGA", "reading": 0.348}
{"sequence-text": "GGCCGGAA", "reading": 0.0761}
{"sequence-text": "AGAATCCG", "reading": 0.00193}
{"sequence-text": "ATTAATAA", "reading": 0.265}
{"sequence-text": "CGCCGCGA", "reading": 0.0357}
{"sequence-text": "CGAAAACC", "reading": 0.0693}
{"sequence-text": "ATGACAAT", "reading": 0.198}
{"sequence-text": "AATTTTAC", "reading": 0.27}
{"sequence-text": "CTCCCGGA", "reading": 0.232}
{"sequence-text": "ATCCGCAA", "reading": -0.0823}
{"sequence-text": "GTAATCGA", "reading": 0.0961}
{"sequence-text": "CTTATGTA", "reading": 0.16}
{"sequence-text": "GAAAAATA", "reading": 0.306}
{"sequence-text": "ATCCCGGA", "reading": 0.328}
{"sequence-text": "GGATAGCA", "reading": 0.0461}
{"sequence-text": "GTCCCGCA", "reading": -0.159}
{"sequence-text": "GTCCGCGA", "reading": 0.347}
{"sequence-text": "TGGGAGAA", "reading": -0.07}
{"sequence-text": "AGACTCCT", "reading": -0.142}
{"sequence-text": "TATGATAA", "reading": 0.233}
{"sequence-text": "AATAATAT", "reading": 0.346}
{"sequence-text": "ATATATAC", "reading": 0.31}
